target: T1, soluble KDR extracellular domain (ECD) (Calbiochem) (human, UniProt P35968 20-764); test: Limited Antigen ELISA, KDR coat 12.5 ng/mL, supernatant 1:25
T1 construct: extracellular domain; Bought protein; also called KDR-ECD; VEGF Receptor 2 D1-7, Cat. #676490
T1 sequence (P35968 20-764): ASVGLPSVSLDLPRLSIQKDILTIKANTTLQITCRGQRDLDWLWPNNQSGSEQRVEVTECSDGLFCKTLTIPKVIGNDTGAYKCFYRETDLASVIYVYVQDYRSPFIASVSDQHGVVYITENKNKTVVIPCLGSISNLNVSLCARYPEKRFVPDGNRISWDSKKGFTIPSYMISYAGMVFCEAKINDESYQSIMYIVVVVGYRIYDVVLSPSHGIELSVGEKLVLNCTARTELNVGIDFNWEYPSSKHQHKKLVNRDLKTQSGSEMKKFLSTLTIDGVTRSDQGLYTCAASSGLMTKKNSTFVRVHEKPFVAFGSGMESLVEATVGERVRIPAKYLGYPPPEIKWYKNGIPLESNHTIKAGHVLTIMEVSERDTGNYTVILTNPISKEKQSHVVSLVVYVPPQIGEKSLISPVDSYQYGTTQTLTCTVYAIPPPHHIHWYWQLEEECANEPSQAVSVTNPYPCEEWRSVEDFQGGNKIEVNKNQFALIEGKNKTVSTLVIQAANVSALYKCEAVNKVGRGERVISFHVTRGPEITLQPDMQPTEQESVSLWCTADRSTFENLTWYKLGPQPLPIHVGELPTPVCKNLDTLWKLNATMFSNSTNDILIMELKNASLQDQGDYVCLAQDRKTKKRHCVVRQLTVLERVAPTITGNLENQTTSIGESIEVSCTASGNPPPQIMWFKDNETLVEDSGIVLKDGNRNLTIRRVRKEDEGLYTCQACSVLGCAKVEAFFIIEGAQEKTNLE
Below, each entry is listed alongside its reported ELISA reading.

{"Binder": "33B1 (antibody, V domains shown, Fully human mAb from XenoMouse hybridoma, tested as hybridoma supernatant) VH: EVQLVESGGGLVKPGGSLRLSCAASGFTFSSYTMNWVRQAPGKGLEWVSFIDSRSSYIYYADSVKGRFTISRDNAKNSLYLQMNSLRAEDTAVYYCSKDDWFEELWGQGTLVTVSS VL: DIQMTQSPSSLSASVGDRVTITCRASQGIRNDLGWYQQKPGKAPKRLIYATSSLQSGVPSRFSGSGSGTEFTLTISSLQPEDFATYYCLHHNSFPWTFGQGTKVEIK", "ELISA reading": 0.12}
{"Binder": "21A1 (antibody, V domains shown, Fully human mAb from XenoMouse hybridoma, tested as hybridoma supernatant) VH: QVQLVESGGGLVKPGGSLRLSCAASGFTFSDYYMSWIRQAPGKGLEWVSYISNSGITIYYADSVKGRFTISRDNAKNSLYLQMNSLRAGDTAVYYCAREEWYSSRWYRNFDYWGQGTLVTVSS VL: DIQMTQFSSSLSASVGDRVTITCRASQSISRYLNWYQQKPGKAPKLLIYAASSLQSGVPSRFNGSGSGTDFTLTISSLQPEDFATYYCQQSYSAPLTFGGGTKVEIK", "ELISA reading": 0.81}
{"Binder": "33C3 (antibody, V domains shown, Fully human mAb from XenoMouse hybridoma, tested as hybridoma supernatant) VH: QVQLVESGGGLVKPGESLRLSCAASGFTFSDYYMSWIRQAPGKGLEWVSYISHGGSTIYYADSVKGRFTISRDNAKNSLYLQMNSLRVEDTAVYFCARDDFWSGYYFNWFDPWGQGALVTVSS VL: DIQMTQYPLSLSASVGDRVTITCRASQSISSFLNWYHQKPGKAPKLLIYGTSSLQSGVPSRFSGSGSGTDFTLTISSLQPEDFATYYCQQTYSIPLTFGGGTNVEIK", "ELISA reading": 0.72}
